Measured % remaining at time point, listed per entry for reference.
test: Plasma stability assay, human plasma; format: in vitro ADME; settings: 2 μM, 37° C., 15 min (head)
Provide only the numeric value, understood in %.

MOLECULE: C=C1CC[C@@]2(O)C3Cc4ccc(OCOC(=O)OCCCCCCCCCCCC)c5c4[C@@]2(CCN3CC2CC2)[C@H]1O5 [Compound 24]
% remaining at time point [%]: 94
//
MOLECULE: CCCCCCCCCCCCCCCC(=O)OC1CCCn2c1nc(C)c(CCN1CCC(c3noc4cc(F)ccc34)CC1)c2=O (centres unmarked) [Paliperidone palmitate, reference compound]
% remaining at time point [%]: 103.7
//
MOLECULE: C=C1CC[C@@]2(O)C3Cc4ccc(OC(=O)OCCCCCCCCCCCC)c5c4[C@@]2(CCN3CC2CC2)[C@H]1O5 [Compound 6]
% remaining at time point [%]: 97.6

Input: What does the record list as % remaining at time point for CCCCCCCCCCCC(=O)OCN1C(=O)CCc2ccc(OCCCCN3CCN(c4cccc(Cl)c4Cl)CC3)cc21 [Aripiprazole Lauroxil, reference compound] ?
Output: 99.7

Input: Would you mind doing C=C1CC[C@@]2(O)C3Cc4ccc(OC(=O)CCCCCCC/C=C/CCCCCCCC)c5c4[C@@]2(CCN3CC2CC2)[C@H]1O5 [Compound 15] as well?
Output: 83.3

* * *

settings: Ethanol; heating temp. 60 °C, obs. temp. 40 °C
Measured Approximate Solubility (mg/mL) in Excipient: Ethanol, listed per entry for reference.

Recorded Approximate Solubility (mg/mL) in Excipient: Ethanol, per entry:
MOLECULAR_STRING: CCCCCCCCCCCCCCCC(=O)Oc1ccc2c3c1O[C@H]1C(=O)CC[C@@]4(O)C(C2)N(CC2CC2)CC[C@]314
TEST_RESULT: >401.1 mg/mL

MOLECULAR_STRING: C=C1CC[C@@]2(O)C3Cc4ccc(OC(=O)CCCCCCCCCCCCCCC)c5c4[C@@]2(CCN3CC2CC2)[C@H]1O5
TEST_RESULT: <40.4 mg/mL

MOLECULAR_STRING: CCCCCCCC/C=C\CCCCCCCCCCCC(=O)Oc1ccc2c3c1O[C@H]1C(=O)CC[C@@]4(O)C(C2)N(CC2CC2)CC[C@]314
TEST_RESULT: >397.7 mg/mL

As a next step, examine the compound that follows.
Input: What does the record list as Approximate Solubility (mg/mL) in Excipient: Ethanol for `CCCCCCCCCCCCCCCCOC(=O)Oc1ccc2c3c1O[C@H]1C(=O)CC[C@@]4(O)C(C2)N(CC2CC2)CC[C@]314` ?
Output: 50 to 100 mg/mL

* * *

Measured Equilibrium solubility (mg/mL) Water, listed per entry for reference.
details: Water; heating temp. 40 °C, obs. temp. 40 °C

Recorded Equilibrium solubility (mg/mL) Water, per entry:
MOLECULAR_STRING: C=C1CC[C@@]2(O)C3Cc4ccc(OC(=O)CCCCCCC/C=C\C/C=C\C/C=C\CC)c5c4[C@@]2(CCN3CC2CC2)[C@H]1O5
Equilibrium solubility (mg/mL) Water: <0.0002 mg/mL
//
MOLECULAR_STRING: C=C1CC[C@@]2(O)C3Cc4ccc(OC(=O)CCCCCCC/C=C/CCCCCCCC)c5c4[C@@]2(CCN3CC2CC2)[C@H]1O5
Equilibrium solubility (mg/mL) Water: <0.0002 mg/mL
//
MOLECULAR_STRING: CCCCCCCCCCCCCCCCCCCC(=O)Oc1ccc2c3c1O[C@H]1C(=O)CC[C@@]4(O)C(C2)N(CC2CC2)CC[C@]314
Equilibrium solubility (mg/mL) Water: <0.001 mg/mL

Input: What does the record list as Equilibrium solubility (mg/mL) Water for `C=C1CC[C@@]2(O)C3Cc4ccc(OCOC(=O)OCCCCCCCCCCCCCCCC)c5c4[C@@]2(CCN3CC2CC2)[C@H]1O5` ?
Output: <0.001 mg/mL

Input: Would you mind doing `C=C1CC[C@@]2(O)C3Cc4ccc(OC(=O)OCCCCCCCCCCCCCC)c5c4[C@@]2(CCN3CC2CC2)[C@H]1O5` as well?
Output: <0.001 mg/mL

Input: Would you mind doing `CCCCCCCCCCCCCC(=O)Oc1ccc2c3c1O[C@H]1C(=O)CC[C@@]4(O)C(C2)N(CC2CC2)CC[C@]314` as well?
Output: <0.001 mg/mL

* * *

details: Sesame oil; heating temp. 60 °C, obs. temp. 25 °C
Measured Approximate Solubility (mg/mL) in Excipient: Sesame oil, listed per entry for reference.

COMPOUND: C=C1CC[C@@]2(O)C3Cc4ccc(OC(=O)OCCCCCCCCCCCCCC)c5c4[C@@]2(CCN3CC2CC2)[C@H]1O5 [Compound 31]
TEST_RESULT: >413.5 mg/mL
//
COMPOUND: C=C1CC[C@@]2(O)C3Cc4ccc(OC(=O)CCCCCCCCCCCCCCCCC)c5c4[C@@]2(CCN3CC2CC2)[C@H]1O5 [Compound 12]
TEST_RESULT: <50 mg/mL
//
COMPOUND: C=C1CC[C@@]2(O)C3Cc4ccc(OC(=O)CCCCCCC/C=C/CCCCCCCC)c5c4[C@@]2(CCN3CC2CC2)[C@H]1O5 [Compound 15]
TEST_RESULT: >396.5 mg/mL
//
COMPOUND: CCCCCCCCCCCCCCCCCCCCCC(=O)Oc1ccc2c3c1O[C@H]1C(=O)CC[C@@]4(O)C(C2)N(CC2CC2)CC[C@]314 [Compound 51]
TEST_RESULT: <46 mg/mL
//
COMPOUND: CCCCCCCCCCCCCCCC(=O)Oc1ccc2c3c1O[C@H]1C(=O)CC[C@@]4(O)C(C2)N(CC2CC2)CC[C@]314 [Compound 55]
TEST_RESULT: <50 mg/mL

Input: What does the record list as Approximate Solubility (mg/mL) in Excipient: Sesame oil for CCCCCCCCCCCCCC(=O)Oc1ccc2c3c1O[C@H]1C(=O)CC[C@@]4(O)C(C2)N(CC2CC2)CC[C@]314 [Compound 57] ?
Output: >417.3 mg/mL

Input: Would you mind doing C=C1CC[C@@]2(O)C3Cc4ccc(OC(=O)CCCCCCCCCCCCCCC)c5c4[C@@]2(CCN3CC2CC2)[C@H]1O5 [Compound 56] as well?
Output: <50 mg/mL

Input: Would you mind doing C=C1CC[C@@]2(O)C3Cc4ccc(OC(=O)OCCCCCCCCCCCCCCCCCC)c5c4[C@@]2(CCN3CC2CC2)[C@H]1O5 [Compound 33] as well?
Output: <51 mg/mL

* * *

test: Plasma stability assay, rat plasma; format: in vitro ADME; settings: 10 μM, 37° C., 120 min
VALUE_KIND: % remaining at time point (%)
Provide only the numeric value, understood in %.

Input: What does the record list as % remaining at time point for `CCCCCCCCCCCCCCCCCCCC(=O)Oc1ccc2c3c1O[C@H]1C(=O)CC[C@@]4(O)C(C2)N(CC2CC2)CC[C@]314` ?
Output: 102.7

Input: Would you mind doing `C=C1CC[C@@]2(O)C3Cc4ccc(OC(=O)OCCCCCCCCCCCCCC)c5c4[C@@]2(CCN3CC2CC2)[C@H]1O5` as well?
Output: 73.5

Input: Would you mind doing C=C1CC[C@@]2(O)C3Cc4ccc(OC(=O)CCCCCCCCCCC)c5c4[C@@]2(CCN3CC2CC2)[C@H]1O5 [Compound 59, reference compound] as well?
Output: 0.7

* * *

test: Liver S9 fraction stability, monkey; assay type: in vitro ADME, cynomolgus monkey; details: monkey liver S9, 1.0 mg/ml S9 protein, 2 μM, 37° C.
Measured % remaining at 60 minutes, listed per entry for reference.
Provide only the numeric value, understood in %.

MOLECULE: C=C1CC[C@@]2(O)C3Cc4ccc(OC(=O)CCCCCCC/C=C/CCCCCCCC)c5c4[C@@]2(CCN3CC2CC2)[C@H]1O5
% remaining at 60 minutes (%): 76.7

As a next step, examine the molecule that follows.
Input: What does the record list as % remaining at 60 minutes for CCCCCCCCCCCC(=O)OCN1C(=O)CCc2ccc(OCCCCN3CCN(c4cccc(Cl)c4Cl)CC3)cc21 [Aripiprazole Lauroxil, reference compound] ?
Output: 56.6

* * *

experiment: Plasma stability assay, human plasma; format: in vitro ADME; conditions: 2 μM, 37° C., 1440 min (head)
VALUE_KIND: % remaining at time point

MOLECULE: CCCCCCCCCCCC(=O)OCN1C(=O)CCc2ccc(OCCCCN3CCN(c4cccc(Cl)c4Cl)CC3)cc21 [Aripiprazole Lauroxil, reference compound]
% remaining at time point: 75.5%
//
MOLECULE: C=C1CC[C@@]2(O)C3Cc4ccc(OCOC(=O)OCCCCCCCCCCCC)c5c4[C@@]2(CCN3CC2CC2)[C@H]1O5 [Compound 24]
% remaining at time point: 112.5%
//
MOLECULE: CCCCCCCCCCCCCCCC(=O)OC1CCCn2c1nc(C)c(CCN1CCC(c3noc4cc(F)ccc34)CC1)c2=O (centres unmarked) [Paliperidone palmitate, reference compound]
% remaining at time point: 104.1%

Input: What does the record list as % remaining at time point for C=C1CC[C@@]2(O)C3Cc4ccc(OC(=O)CCCCCCC/C=C/CCCCCCCC)c5c4[C@@]2(CCN3CC2CC2)[C@H]1O5 [Compound 15] ?
Output: 109.0%

Input: Would you mind doing C=C1CC[C@@]2(O)C3Cc4ccc(OC(=O)OCCCCCCCCCCCC)c5c4[C@@]2(CCN3CC2CC2)[C@H]1O5 [Compound 6] as well?
Output: 115.1%
